Test: Human HepG2 cell viability assay in 384 well format
Type: toxicity, cell-based
Set-up: dose 125 nL, time 70.5 hour; concentration not given beside the values
Settings: HepG2 cells, read-out: Inhibition
endpoint: cytotoxicity at 70.5 h (%)
Use % as the unit, but write only the number.

{"compound": "CC(=O)N1CCO[C@@H]2CN(C(=O)c3cc(C)oc3C)CC[C@@H]2C1", "cytotoxicity at 70.5 h / %": 13}
{"compound": "CC(C)(C)c1cn2nc(N3CCC[C@@H]3CO)sc2n1", "cytotoxicity at 70.5 h / %": -17.4}
{"compound": "COc1ncccc1CNc1cc(N2CCCC2CO)ncn1 (stereo not given)", "cytotoxicity at 70.5 h / %": -12}

Sure, the documented cytotoxicity at 70.5 h for "CC(=O)Nn1c(C)cc(CN2CCC(C(=O)N3CCCC3)CC2)c1C" is -2.42

Sure, the documented cytotoxicity at 70.5 h for O=C(CC1OCCc2ccccc21)NCCn1cccc1 (stereo not given) is -4.75

Sure, the documented cytotoxicity at 70.5 h for CCCn1ccnc1-c1cccc(NC2CCOC2)c1 (stereo not given) is -1.36

Sure, the documented cytotoxicity at 70.5 h for "O=C(CCN1CCCCO1)NCCSc1cnn[nH]1" is -3.27

Sure, the documented cytotoxicity at 70.5 h for "O=C(NCc1ccccc1CN1CCC(O)CC1)Nc1ccccn1" is -3.22

----------
Let's look at some molecules and their measured cytotoxicity at 70.5 h.
Assay: Human HepG2 cell viability assay in 384 well format
Format: toxicity, cell-based
Design: dose 125 nL, time 70.5 hour; concentration not given beside the values
Conditions: HepG2 cells, read-out: Inhibition
Use % as the unit, but write only the number.

Sure, the documented cytotoxicity at 70.5 h for "Cn1c2c(c(=O)n1C)CN(C(=O)c1ccsc1)CCC2" is -0.418

Sure, the documented cytotoxicity at 70.5 h for "Cn1cccc1C(=O)NC1CCN(c2ccc(OC(F)(F)F)cc2)CC1" is 16.6

Sure, the documented cytotoxicity at 70.5 h for "O=C1[C@@H]2CN(Cc3cc4ccccc4o3)C[C@]2(C(=O)O)CN1CC1CC1" is -4.85

Sure, the documented cytotoxicity at 70.5 h for "Cc1cc(F)ccc1S(=O)(=O)N(C)CC(N)=O" is -6.18

Sure, the documented cytotoxicity at 70.5 h for "CCCS(=O)(=O)N1CCN(Cc2ccco2)CC1" is -7.67

Sure, the documented cytotoxicity at 70.5 h for CSCc1noc(CNC2CCCC(C)(C)C2)n1 (stereo not given) is -5.82

Sure, the documented cytotoxicity at 70.5 h for "Cc1cc(C)nc(N2CCC(c3noc(C)n3)CC2)n1" is -7.52

Sure, the documented cytotoxicity at 70.5 h for O=C(c1ccc2[nH]cnc2c1)N1CCCC1Cn1cccn1 (stereo not given) is -8.04

Sure, the documented cytotoxicity at 70.5 h for "COCc1cc(NCCc2ccc(F)cc2)n2nccc2n1" is -0.706

Sure, the documented cytotoxicity at 70.5 h for O=C(O)CC(NC(=O)c1ccccc1OC(F)F)c1cccs1 (stereo not given) is 2.5

Sure, the documented cytotoxicity at 70.5 h for COC(=O)c1ccc(N2CCN(C(=O)C3CC3)C(C)C2)cc1 (stereo not given) is -5.06

----------
Let's look at some compounds and their measured cytotoxicity at 70.5 h.
Assay: Human HepG2 cell viability assay in 384 well format
Type: toxicity, cell-based
Set-up: dose 125 nL, time 70.5 hour; concentration not given beside the values
Details: HepG2 cells, read-out: Inhibition
Use % as the unit, but write only the number.

Answered examples (5):
{"compound": "CCC(O)CNC(=O)c1coc(COc2ccc3sc(C)nc3c2)n1 (stereo not drawn)", "endpoint": "cytotoxicity at 70.5 h", "experimental.value": 12.2}
{"compound": "O=C(O)CCCC(=O)NCC1(O)CCN(c2ccnc3cccnc23)C1 (stereo not drawn)", "endpoint": "cytotoxicity at 70.5 h", "experimental.value": 1.69}
{"compound": "C=Cc1ccc(CN2CCCC3(CNC(=O)c4ccccc4O3)C2)cc1 (stereo not drawn)", "endpoint": "cytotoxicity at 70.5 h", "experimental.value": 8.95}
{"compound": "CC(C)n1nnnc1-c1ccc(NC(=O)C(C)(C)C#N)cc1F", "endpoint": "cytotoxicity at 70.5 h", "experimental.value": 4.99}
{"compound": "Cc1ncsc1CN1CC[C@H]2C(=O)N(c3ccccc3)CCO[C@H]2C1", "endpoint": "cytotoxicity at 70.5 h", "experimental.value": -9.01}

Sure, the documented cytotoxicity at 70.5 h for CCC(O)CN1CCN(C(=O)c2ccc(N(C)C)nn2)CC1 (stereo not drawn) is -2.61

Sure, the documented cytotoxicity at 70.5 h for Cc1cc(CNC(=O)NCC(O)c2cccc(F)c2)no1 (stereo not drawn) is -10.8
